meta.source: patent US4469706A

# test-target: beta-adrenergic sensitive adenylate cyclase present in mammalian choroid plexus (Felis catus)
# Construct: are prepared from the various tissues to be studied (e.g., ciliary process, choroid plexus, heart or lung); from tissue; host or cells: choroid plexus (homogenate or washed particulate)
# Sequence (Q9TST5 whole entry): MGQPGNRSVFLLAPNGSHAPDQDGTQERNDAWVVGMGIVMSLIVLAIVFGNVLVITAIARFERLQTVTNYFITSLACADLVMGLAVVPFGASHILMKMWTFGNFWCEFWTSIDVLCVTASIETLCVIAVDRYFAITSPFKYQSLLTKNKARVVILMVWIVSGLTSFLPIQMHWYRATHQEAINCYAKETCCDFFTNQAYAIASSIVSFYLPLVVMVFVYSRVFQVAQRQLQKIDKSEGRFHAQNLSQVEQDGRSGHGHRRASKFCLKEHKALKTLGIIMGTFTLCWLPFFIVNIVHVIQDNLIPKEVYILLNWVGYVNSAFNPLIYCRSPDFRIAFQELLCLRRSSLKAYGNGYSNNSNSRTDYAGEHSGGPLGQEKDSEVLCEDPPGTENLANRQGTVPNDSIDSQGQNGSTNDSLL
# test-description: Choroid plexus adenylate cyclase activity
# Type: biochemical
Counter-ions that a name gives are not always drawn.
assay-endpoint: pKi
Notebook: values listed as pKi are -log10 of the concentration (mol/L).

Qu. Fill in reported pKi for this entry: CC(C)(C)NCC(O)CON=C1c2ccccc2-c2ccccc21 (centres unmarked) [IPS 339, hydrochloride]
Ans. 8.72

Qu. Fill in reported pKi for this entry: Cc1ccc(C(O)C(C)NC(C)C)cc1 (centres unmarked)
Ans. 6.85
